Molecular target: human MDM2 (GST-hMDM2 1-188), interaction with biotinylated-p53 (1-83) (Homo sapiens)
Construct: Amino acid residues 1-188 of human MDM2 were expressed
Sequence (Q00987 1-188): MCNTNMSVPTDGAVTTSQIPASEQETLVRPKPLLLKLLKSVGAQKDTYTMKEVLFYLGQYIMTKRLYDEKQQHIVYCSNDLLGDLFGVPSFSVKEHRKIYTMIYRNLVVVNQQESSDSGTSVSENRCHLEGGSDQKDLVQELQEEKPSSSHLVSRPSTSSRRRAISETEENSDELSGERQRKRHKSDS
Assay: improved HTRF assay (HTRF2 assay), inhibition of HDM2-p53 interaction
Settings: 0.2 nM GST-hMDM2, 0.5 nM biotinylated-p53, 100 mM KF
pIC50: −log10 of the molar value.

{"columns": ["Compound", "pIC50"],
 "data": [
  ["CC[C@@H](CS(=O)(=O)C(C)(C)C)N1C(=O)[C@@H](CC(=O)O)O[C@H](c2cccc(Cl)c2)[C@@]1(C)c1ccc(Cl)cc1 (single isomer, unassigned) [Example 162]", 5.20],
  ["COc1ccc([C@H]2O[C@H](CC(=O)O)C(=O)N([C@H](CSC(C)(C)C)C3CC3)[C@@H]2c2ccc(Cl)cc2)cc1Cl (single isomer, unassigned)", 7.92],
  ["C[C@@H](CS(=O)(=O)C(C)(C)C)N1C(=O)[C@@H](CC(=O)N2CCOCC2)O[C@H](c2cccc(Cl)c2)[C@H]1c1ccc(Cl)cc1 (single isomer, unassigned)", 7.66]
]}

====

The molecules listed here are annotated with their IC50.
Target: human MDM2 (GST-hMDM2 aa 1-188), interaction with biotinylated-p53 (aa 1-83) (Homo sapiens)
Construct: Amino acid residues 1-188 of human MDM2 were expressed
Sequence (Q00987 1-188): as above
Assay: Homogenous Time-Resolved Fluorescence Assay (HTRF1 assay), inhibition of HDM2-p53 interaction
Details: 2.5 nM GST-hMDM2, 5 nM biotinylated-p53, 200 mM KF

{"columns": ["Molecule", "IC50 [µM]"],
 "data": [
  ["CCCCN1C(=O)[C@H](CC(=O)O)O[C@H](c2cccc(Cl)c2)[C@H]1c1ccc(Cl)cc1 [Example 40]", 0.7],
  ["CC[C@H](C(=O)OC(C)(C)C)N1C(=O)[C@@H](CC(=O)O)O[C@H](c2cccc(Cl)c2)[C@H]1c1ccc(Cl)cc1 (single isomer, unassigned) [Example 33]", 1.1],
  ["O=C(O)C[C@H]1O[C@H](c2cccc(Cl)c2)[C@@H](c2ccc(F)cc2)N(CC2CC2)C1=O [Example 64]", 1.5],
  ["COc1cccc([C@H]2OC(CC(=O)O)C(=O)N(CC3CC3)[C@@H]2c2ccc(Cl)cc2)c1 (single isomer, unassigned) [Example 90]", 3.5],
  ["O=C(O)C[C@@H]1O[C@H](c2cccc(Cl)c2)[C@@H](c2ccc(Cl)cc2F)N(CC2CC2)C1=O [Example 54]", 0.6],
  ["C[C@@H](c1ccccc1)N1C(=O)[C@H](CC(=O)O)O[C@H](c2cccc(Cl)c2)[C@H]1c1ccc(Cl)cc1 [Example 27]", 0.6],
  ["O=C(O)CC1O[C@H](c2cccc(Cl)c2)[C@@H](c2ccc(Br)cc2)N(CC2CC2)C1=O (single isomer, unassigned) [Example 67]", 17.5],
  ["O=C(O)CC1O[C@H](c2cccc(OC(F)(F)F)c2)[C@@H](c2ccc(Cl)cc2)N(CC2CC2)C1=O (single isomer, unassigned) [Example 95]", 33.5],
  ["Cn1c([C@@H]2[C@@H](c3cccc(Cl)c3)O[C@@H](CC(=O)O)C(=O)N2CC2CC2)nc2ccccc21 (racemic) [Example 5]", 39.5],
  ["CCN1C(=O)[C@H](CC(=O)O)O[C@H](c2cccc(Cl)c2)[C@H]1c1ccc(Cl)cc1 [Example 45]", 0.8],
  ["O=C(O)CC1O[C@H](c2cccc(Cl)c2)[C@@H](c2ccc(C(F)(F)F)nc2)N(CC2CC2)C1=O (single isomer, unassigned) [Example 81]", 15.7],
  ["C[C@@H](C1CCC1)N1C(=O)[C@@H](CC(=O)O)O[C@H](c2cccc(Cl)c2)[C@H]1c1ccc(Cl)cc1 [Example 22]", 0.5],
  ["COc1ccc([C@@H]2[C@@H](c3cccc(Cl)c3)OC(CC(=O)O)C(=O)N2CC2CC2)cn1 (single isomer, unassigned) [Example 73]", 11.6],
  ["O=C(O)CC1O[C@H](c2cccc(Cl)c2)[C@@H](c2ccc(Cl)c(F)c2)N(CC2CC2)C1=O (single isomer, unassigned) [Example 77]", 0.3],
  ["O=C(O)/C=C1/O[C@H](c2cccc(Cl)c2)[C@@H](c2ccc(Cl)cc2)N(CC2CC2)C1=O (single isomer, unassigned; isomer 2) [Example 52]", 19.7],
  ["C[C@H](c1ccccc1)N1C(=O)[C@H](CC(=O)O)O[C@H](c2cccc(Cl)c2)[C@H]1c1ccc(Cl)cc1 [Example 25]", 0.6],
  ["CC[C@H](C(=O)OC(C)(C)C)N1C(=O)[C@H](CC(=O)O)O[C@H](c2cccc(Cl)c2)[C@H]1c1ccc(Cl)cc1 (single isomer, unassigned) [Example 30]", 1.8],
  ["O=C(O)C[C@@H]1O[C@H](c2cccc(Cl)c2)[C@@H](c2ccc(Cl)cc2)N(C2CCC2)C1=O [Example 12]", 0.9],
  ["O=C(O)C[C@H]1O[C@H](c2cccc(Cl)c2)[C@@H](c2ccc(OC(F)(F)F)cc2)N(CC2CC2)C1=O [Example 65]", 1.1],
  ["O=C(O)C[C@@H]1O[C@H](c2cccc(Cl)c2)[C@@H](c2ccc(Cl)cc2)N(C2CCCC2)C1=O [Example 14]", 0.3],
  ["O=C(O)CC1O[C@H](c2cccc(Cl)c2)[C@@H](c2ccc(Br)cc2)N(CC2CC2)C1=O (single isomer, unassigned) [Example 68]", 14.2],
  ["O=C(O)CC1O[C@H](c2cc(Cl)cc(Br)c2)[C@@H](c2ccc(Cl)cc2)N(CC2CC2)C1=O (single isomer, unassigned) [Example 105]", 0.3],
  ["O=C(O)CC1O[C@H](c2cccc(Cl)c2)[C@@H](c2ccc(Cl)nc2)N(CC2CC2)C1=O (single isomer, unassigned) [Example 72]", 1.5],
  ["O=C(O)CC1O[C@H](c2cncc(Cl)c2)[C@@H](c2ccc(Cl)cc2)N(CC2CC2)C1=O (single isomer, unassigned) [Example 87]", 1.8],
  ["Cc1cccc([C@H]2OC(CC(=O)O)C(=O)N(CC3CC3)[C@@H]2c2ccc(Cl)cc2)c1 (single isomer, unassigned) [Example 103]", 3.4]
]}
